# test.target: PIM1 (Homo sapiens, UniProt P11309)
# Sequence (P11309 whole entry, species assumed): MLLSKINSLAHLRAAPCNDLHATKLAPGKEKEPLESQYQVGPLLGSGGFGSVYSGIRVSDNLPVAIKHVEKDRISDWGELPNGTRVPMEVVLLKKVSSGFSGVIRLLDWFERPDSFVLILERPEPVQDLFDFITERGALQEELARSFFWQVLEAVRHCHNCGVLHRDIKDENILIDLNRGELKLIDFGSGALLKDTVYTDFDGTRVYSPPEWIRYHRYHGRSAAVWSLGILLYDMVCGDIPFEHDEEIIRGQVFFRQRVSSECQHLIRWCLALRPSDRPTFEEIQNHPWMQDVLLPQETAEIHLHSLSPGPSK
# test.name: Kinase profiling PIM1
# Assay type: biochemical
# condition.summary: 100 micromolar inhibitor concentration; 100 is no change; read-out: residual kinase activity, PIM1
Recorded remaining activity at 100 µM, one value per entry.

molecule: COc1ccc2sc(NC(C)=O)nc2c1 [Compound 03-21]
property.name: remaining activity at 100 µM
result: 8%
//
molecule: CC(=O)Nc1nc2cc(F)ccc2s1 [Compound 03-77]
property.name: remaining activity at 100 µM
result: 19%

Incoming: Please give the measured remaining activity at 100 µM for this molecule: CC(=O)Nc1nc2ccc(C#N)cc2s1 [Compound 01-94]
Outgoing: 26%

Incoming: Given the entry CC(=O)Nc1nc2ccc(C(F)(F)F)cc2s1 [Compound 01-90] , report its measured remaining activity at 100 µM.
Outgoing: 71%

Incoming: Query: remaining activity at 100 µM; subject: CC(=O)Nc1nc2ccc(O)cc2s1 [Compound 01-71]
Outgoing: 19%

Incoming: Look up remaining activity at 100 µM: CC(=O)Nc1nc2ccc([N+](=O)[O-])cc2s1 [Compound 13-10]
Outgoing: 81%

Incoming: Need remaining activity at 100 µM, item CC(=O)Nc1nc2cc(C(F)(F)F)ccc2s1 [Compound 03-73]
Outgoing: 10%

Values from patent US10231954B2
